meta.source: paper PMC6471559

Tested on: A549 human lung carcinoma cells
Assay: MTT antiproliferative assay, 72 h
Format: cell-based
Details: Homo sapiens; A549, MTT, 72 h
Measured Quantity: IC50 (nM)
Kindly provide the numeric value in nM only, without the unit symbol.

Problem: For the record CCCn1c2cc(OCCC(C)C)ccc2c2cc[n+](Cc3ccccn3)c(C)c21.[Br-] [compound 2] , what value of IC50 is listed for A549 human lung carcinoma cells?
Solution: 261

---

Assay: Thermodynamic solubility by UV absorbance at 330 nm after 72 h stirring at 37 °C
Format: physicochemical
Settings: 0.02 M NaCl solution acidified with HCl, pH 1.1, simulated gastric fluid, thermodynamic from solid, pH 1.1 (0.02 M NaCl, HCl), read-out: Thermodynamic solubility at 37 °C replicate 3
Protocol: Compound 2 solubility and stability measurements were performed at 37 °C at pH 1.1 (0.02 M NaCl, pH 1.1 obtained by HCl addition) to mimic gastric conditions, at pH 7.4 (0.050 M Na2HPO4/NaH2PO4 and 0.02 M NaCl, pH 7.4) and simulated injection vehicle (0.9% NaCl and 0.1% Polysorbate 80). Stability measurements were performed from 0 h to 72 h after complete solubilization. […]
Measured Quantity: solubility thermodynamic at 72 h (µg/mL)
Kindly provide the numeric value in µg/mL only, without the unit symbol.

Problem: What measured solubility thermodynamic at 72 h goes with CCCn1c2cc(OCCC(C)C)ccc2c2cc[n+](Cc3ccccn3)c(C)c21.[Br-] ?
Solution: 1770
